protocol-text: E. coli acrAB mutant growth effects, primary screen, E. coli filamentation inducers, strain DRC39, OD650, 48 h (AID 1179);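 note: screen aims at cell division blockers that make cells filament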
measurement-setup: E. coli DRC39 delta-acrAB growth, higher = more signal, called active from +8 up or from −8 down
So basically: z-score at -0.06 or higher? That is Condition met. Lower than -0.06? That is Condition not met.

INSERT INTO measurements (compound, discrete_label) VALUES
  ('[N-]=[N+]=Nc1ccccc1[C@@H]1OC(c2ccc(OCCCO)cc2)=N[C@]1(Cc1ccccc1)C(=O)NCC(O)CO (stereo partly drawn)', 'Condition met'),
  ('COC(=O)[C@@]1(Cc2ccccc2)[C@@H]2C(=CC(=O)[C@H]2CC(=O)C(=O)N(C)C)CN1C(=O)c1ccccc1', 'Condition not met'),
  ('COCCOC(=O)N1C(=O)[C@@]2(c3cc(C#CCCO)ccc31)[C@H](c1ccccc1OCCO)N1[C@H](c3ccccc3)[C@H](c3ccccc3)OC(=O)[C@H]1[C@@H]2C(=O)Nc1nc2ccccc2s1', 'Condition not met'),
  ('CC(C)N1CC=CC23O[C@@H]4C=CCOC(=O)[C@@H]4[C@H]2C(=O)N(CCCO)[C@@H]3C1=O (stereo partly drawn)', 'Condition met'),
  ('CCOC(=O)c1ccc(NC(=O)O[C@H]2[C@H](OC(=O)Nc3ccc4c(c3)OCO4)[C@H](OC(=O)Nc3ccc4c(c3)OCO4)[C@@H](OC)O[C@@H]2CO)cc1', 'Condition met'),
  ('CC1=C[C@@]2(CO)C(=O)[C@]3(CO3)[C@@H]1[C@H]1[C@]2(C)C=C(CO)C(=O)[C@]12CO2', 'Condition met'),
  ('O=C1OCCC/C=C\[C@H]2OC34C=CCN(CCN5CCOCC5)C(=O)[C@H]3N(CCCCCCO)C(=O)[C@@H]4C12 (stereo partly drawn)', 'Condition met'),
  ('CN1C(=O)C2C=CC(C(O)c3ccc(F)cc3)N(Nc3ccccc3)C2C1=O (stereo not drawn)', 'Condition not met'),
  ('O=C(CS)NCCCCCCNC(=O)[C@H]1C[C@H]2C(=O)N[C@@H](Cc3ccccc3)C(=O)N2[C@H]1c1ccc(O)cc1', 'Condition not met'),
  ('C[C@@H]1ON(c2ccc(C(=O)OC(C)(C)C)cc2)[C@H](c2ccc(O)cc2)[C@H]1C(=O)N1C(=O)OC[C@H]1Cc1ccccc1', 'Condition not met'),
  ('COc1ccc(-c2nc(-c3ccccc3)c3c(c2C)CO[Si]3(C(C)C)C(C)C)cn1', 'Condition not met'),
  ('COC(=O)[C@@]1(Cc2ccc(OC)cc2)[C@H]2c3cc(C(=O)N(C)C)n(Cc4ccc(Cl)c(C(F)(F)F)c4)c3C[C@H]2CN1C(=O)c1ccccc1', 'Condition met'),
  ('C=CCOC(=O)[C@H]1[C@@H]2C(=O)O[C@@H](c3ccccc3)[C@@H](c3ccccc3)N2[C@@H](c2ccc(OCCOC(=O)[C@H]3C[C@H]4C(=O)N[C@@H](CC(C)C)C(=O)N4[C@H]3c3cccc(OCCO)c3)cc2)[C@]12C(=O)Nc1ccc(I)cc12', 'Condition not met'),
  ('CN1C(=O)C2C=CC(C(O)c3cccc4ccccc34)N(N3CCCCC3)C2C1=O (stereo not drawn)', 'Condition not met'),
  ('COC(=O)[C@@]1(Cc2ccc(OC)cc2)[C@H]2c3cc(C(=O)N4CCCC4)n(Cc4cccc5ccccc45)c3C[C@H]2CN1C(=O)c1ccccc1', 'Condition met'),
  ('C[N+](C)(C)CCCCCCNC(=O)[C@H]1C[C@H]2C(=O)NCC(=O)N2[C@H]1c1ccc(O)cc1', 'Condition not met'),
  ('C=CC[C@@]1(C(=O)N2CCOCC2)N=C(c2ccc(OCCCO)cc2)O[C@@H]1c1ccccc1CN=[N+]=[N-]', 'Condition met'),
  ('O=C1O[C@H](c2ccccc2)[C@H](c2ccccc2)N2[C@H]1[C@@H](C(=O)Nc1nc3ccccc3s1)[C@]1(C(=O)Nc3ccccc31)[C@H]2c1ccc(OCCO)cc1', 'Condition met'),
  ('C=C[C@@H](OC)[C@H](OC(=O)Nc1ccc(SC)cc1)c1ccc(O)c(F)c1', 'Condition not met'),
  ('COC(=O)[C@@]1(Cc2ccccc2)[C@H]2c3cc(C(=O)N(C)C)n(CCN4CNCC4=O)c3C[C@H]2CN1C(=O)c1ccccc1', 'Condition not met'),
  ('CC(C)[Si](C#C[Si](C(C)C)(C(C)C)C(C)C)(O[C@H](C)c1cn([C@H](CO)Cc2ccccc2)nn1)C(C)C', 'Condition met'),
  ('CN(C)CCCCNC(=O)[C@@H]1C[C@@H]2C(=O)N[C@@H](Cc3ccccc3)C(=O)N2[C@@H]1c1cccc(OCCO)c1', 'Condition met'),
  ('[N-]=[N+]=NCc1ccccc1C[C@@]1(C(=O)NCc2ccccc2)N=C(c2ccc(OCCCO)cc2)O[C@@H]1c1ccccc1N=[N+]=[N-]', 'Condition not met'),
  ('CCOC(=O)C[C@H]1[C@H](OC(=O)c2ccccc2-c2ccccc2)[C@@H](NC(=O)C2CCCCC2)c2cc(OCCCO)ccc2N1C(=O)Cc1ccc(OC)cc1', 'Condition not met'),
  ('COC(=O)[C@@]1(Cc2ccc(OC)cc2)[C@H]2c3cc(C(=O)N(C)C)n(CCO)c3C[C@H]2CN1C(=O)c1ccccc1', 'Condition not met'),
  ('COCCCNC(=O)[C@]1(CCS(=O)(=O)c2ccccc2)N=C(c2ccc(OCCCO)cc2)O[C@@H]1c1ccccc1CN=[N+]=[N-]', 'Condition met'),
  ('COC(=O)[C@H](Cc1ccccc1)N1CC(/C=C/C2CC2)=C[C@H]1[C@H](O)Cc1ccccc1', 'Condition met'),
  ('O=C1NC(=O)C2C1C=CC(C(O)c1cccc3ccccc13)N2Nc1ccc(Cl)cc1Cl (stereo not drawn)', 'Condition not met');

* * *

measurement-target: Torsin-1A-interacting protein 2 (Homo sapiens)
protocol-text: LULL1 binders on small-molecule microarray, primary screen, cell lysate, human LULL1 lysate, 635/667 nm fluorescence (AID 1092);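 note: probe is lysate of COS7 cells overexpressing human LULL1; score merges per-feature 667 nm fluorescence with signal-to-noise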
measurement-setup: hLULL1 lysate binding, 635 nm fluorescence, higher = more signal
attribute-measured: composite z-score

INSERT INTO measurements (molecule, attribute_measured, observed_measurement) VALUES
  ('CC(=O)NCCCC[C@@H]1NC(=O)[C@@H]2C[C@H](C(=O)NCCCC[N+](C)(C)C)[C@H](c3ccc(O)cc3)N2C1=O', 'composite z-score', 1.46),
  ('O=C1O[C@H](c2ccccc2)[C@H](c2ccccc2)N2[C@H]1[C@@H](C(=O)NC[C@H](O)c1ccccc1)[C@]1(C(=O)Nc3ccc(C#CCCO)cc31)[C@H]2c1ccc(OCCO)cc1', 'composite z-score', 2.08),
  ('O=C1OCC=C[C@H]2OC34C=CCN(c5ccc(Cl)cc5)C(=O)[C@H]3N(CCO)C(=O)[C@@H]4[C@@H]12 (stereo partly drawn)', 'composite z-score', 2.87);

* * *

protocol-text: PSAC antagonists in infected red cells, primary screen, cell-based, P. falciparum Indochina, OD700, 18 h (AID 1157)
measurement-setup: P. falciparum Indochina infected erythrocytes, osmotic lysis OD700, 18 h; higher = more signal, called active from +8 up or from −8 down
Decision: z-score compared against 0.9; not below it gives true, below it gives false.

INSERT INTO results (compound, discrete_label) VALUES
  ('COC(=O)c1cn(C[C@@H](Cc2ccccc2)NC(=O)N[C@H](CO)CCc2oc(C(C)=O)c(C(=O)OC)c2C(=O)OC)nn1', 'false'),
  ('O=C(CS)NCCCCCNC(=O)[C@@H]1C[C@@H]2C(=O)N3CCC[C@H]3C(=O)N2[C@@H]1c1cccc(OCCO)c1', 'false'),
  ('C=CCC(OC(C)=O)[C@@H]1[C@@H](N(Cc2cccc3ccccc23)C(=O)Cc2ccc(F)cc2)c2cc(OCCCO)ccc2N1C(=O)c1ccc2ccccc2n1 (some centres not stated)', 'false'),
  ('COC(=O)C1=CC(CCCO)=CC(C2CC2)N(C)C=C1C(=O)OC (configuration not stated)', 'false'),
  ('[N-]=[N+]=Nc1ccccc1C[C@]1(C(N)=O)N=C(c2ccc(OCCCO)cc2)O[C@H]1c1ccccc1N=[N+]=[N-]', 'true'),
  ('COC(=O)[C@@]1(Cc2ccccc2)[C@H]2c3cc(C(=O)N(C)C)n(Cc4c(CO)[nH]cc(C)c4=O)c3C[C@H]2CN1C(=O)c1ccccc1', 'false'),
  ('C=CCN1C(=O)[C@@]2(O[C@@H](CCn3cc([C@H](O)c4ccccc4)nn3)[C@H]([Si](C)(C)c3ccc(OC)cc3)[C@H]2C)c2cc(N3CCC3=O)ccc21', 'true');

* * *

protocol-text: binders of probe aHhip on microarray, primary screen, stem cell growth factor project, biochemical, small-molecule microarray, fluorescence 635/667 (AID 1087);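 note: score merges spot fluorescence at 667nm with spot signal to noise ratio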
measurement-setup: higher = more signal
attribute-measured: composite z-score

INSERT INTO measurements (compound, attribute_measured, observed_measurement) VALUES
  ('CO[C@H]1O[C@H](CO)[C@@H](OC(=O)Nc2ccccc2-c2ccccc2)[C@H](OC(=O)Nc2ccc3c(c2)OCO3)[C@H]1OC(=O)Nc1ccc2c(c1)OCO2', 'composite z-score', -0.0618),
  ('COCCOC(=O)N1C(=O)[C@@]2(c3cc(C#CC4=CCCCC4)ccc31)[C@H](C(N)=O)[C@H]1C(=O)O[C@H](c3ccccc3)[C@H](c3ccccc3)N1[C@@H]2c1ccccc1OCCO', 'composite z-score', 0.388),
  ('O=C1NC(=O)C2C1C=CC(C(O)c1c(F)cccc1Cl)N2Nc1ccc(Cl)cc1Cl (configuration not stated)', 'composite z-score', -0.216),
  ('C=C(C)[C@@H]1CC=C(C(O)C2C=CC3C(=O)N(c4ccccc4)C(=O)C3N2Nc2ccccc2F)CC1 (some centres not stated)', 'composite z-score', 0.18),
  ('O=C(NCC(F)(F)F)[C@@H]1c2ccccc2C(=O)N(Cc2cc(F)cc(C(F)(F)F)c2)[C@H]1c1ccc(CO)cc1', 'composite z-score', -0.218),
  ('CC1=C[C@@]2(CO)C(=O)[C@]3(CO3)[C@@H]1[C@H]1[C@]2(C)C=C(CO)C(=O)[C@]12CO2', 'composite z-score', 0.459),
  ('O=C1O[C@@H](c2ccccc2)[C@@H](c2ccccc2)N2[C@@H](c3ccc(OCCO)cc3)[C@]3(C(=O)Nc4ccccc43)[C@@H](C(=O)O)[C@H]12', 'composite z-score', -0.407);
